Test system: GALAP (catchweed bedstraw)
experiment summary: Pre-plant incorporated (PPI) herbicidal activity, cool season
Format: in vivo, Galium aparine
experimental setup: weed, PPI application, 300 g/ha
Procedure: In another set of tests, the pre-plant incorporated (PPI) activity of compounds of this invention was evaluated on the same species as for the pre-emergence tests described above. […] A pre-prepared topsoil mixture (described above) was placed in a pot and compacted to a depth of 1.0 to 1.25 cm from the top of the pot. […] A sufficient quantity of soil to cover the seeds and level fill the pot was weighed into an open container. […]
So I've got a bunch of molecules here, and I need their Percent inhibition GALAP values.
Please respond with the number in % and leave the unit unwritten.

Query: Return reported Percent inhibition GALAP; argument: CCN(CC)C(=O)n1cnc(S(=O)(=O)C(F)(F)SCc2ccccc2)n1
Result: 50

Query: Return reported Percent inhibition GALAP; argument: CCN(CC)C(=O)n1cnc(S(=O)(=O)C(F)(F)SC)n1
Result: 100

Query: Return reported Percent inhibition GALAP; argument: CCN(CC)C(=O)n1cnc(S(=O)(=O)C(F)(F)C(F)F)n1
Result: 100

Query: Return reported Percent inhibition GALAP; argument: CCN(CC)C(=O)n1cnc(S(=O)(=O)C(F)(F)C(F)(F)Br)n1
Result: 100

Query: Return reported Percent inhibition GALAP; argument: CCN(CC)C(=O)n1cnc(S(=O)(=O)C(F)(F)SCC(=O)OC)n1
Result: 20

Query: Return reported Percent inhibition GALAP; argument: CCN(CC)C(=O)n1cnc(S(=O)(=O)C(F)(F)Cl)n1
Result: 100

Query: Return reported Percent inhibition GALAP; argument: CCN(CC)C(=O)n1cnc(S(=O)(=O)C(F)(F)F)n1
Result: 100

Query: Return reported Percent inhibition GALAP; argument: C=C(CC(F)(F)S(=O)(=O)c1ncn(C(=O)N(CC)CC)n1)C[Si](C)(C)C
Result: 90

Query: Return reported Percent inhibition GALAP; argument: CCN(CC)C(=O)n1cnc(S(=O)(=O)C(F)(F)SCCOC)n1
Result: 40
